- target.entity: MET (Homo sapiens)
- Construct: endogenous in cells
- Sequence (P08581 25-1390): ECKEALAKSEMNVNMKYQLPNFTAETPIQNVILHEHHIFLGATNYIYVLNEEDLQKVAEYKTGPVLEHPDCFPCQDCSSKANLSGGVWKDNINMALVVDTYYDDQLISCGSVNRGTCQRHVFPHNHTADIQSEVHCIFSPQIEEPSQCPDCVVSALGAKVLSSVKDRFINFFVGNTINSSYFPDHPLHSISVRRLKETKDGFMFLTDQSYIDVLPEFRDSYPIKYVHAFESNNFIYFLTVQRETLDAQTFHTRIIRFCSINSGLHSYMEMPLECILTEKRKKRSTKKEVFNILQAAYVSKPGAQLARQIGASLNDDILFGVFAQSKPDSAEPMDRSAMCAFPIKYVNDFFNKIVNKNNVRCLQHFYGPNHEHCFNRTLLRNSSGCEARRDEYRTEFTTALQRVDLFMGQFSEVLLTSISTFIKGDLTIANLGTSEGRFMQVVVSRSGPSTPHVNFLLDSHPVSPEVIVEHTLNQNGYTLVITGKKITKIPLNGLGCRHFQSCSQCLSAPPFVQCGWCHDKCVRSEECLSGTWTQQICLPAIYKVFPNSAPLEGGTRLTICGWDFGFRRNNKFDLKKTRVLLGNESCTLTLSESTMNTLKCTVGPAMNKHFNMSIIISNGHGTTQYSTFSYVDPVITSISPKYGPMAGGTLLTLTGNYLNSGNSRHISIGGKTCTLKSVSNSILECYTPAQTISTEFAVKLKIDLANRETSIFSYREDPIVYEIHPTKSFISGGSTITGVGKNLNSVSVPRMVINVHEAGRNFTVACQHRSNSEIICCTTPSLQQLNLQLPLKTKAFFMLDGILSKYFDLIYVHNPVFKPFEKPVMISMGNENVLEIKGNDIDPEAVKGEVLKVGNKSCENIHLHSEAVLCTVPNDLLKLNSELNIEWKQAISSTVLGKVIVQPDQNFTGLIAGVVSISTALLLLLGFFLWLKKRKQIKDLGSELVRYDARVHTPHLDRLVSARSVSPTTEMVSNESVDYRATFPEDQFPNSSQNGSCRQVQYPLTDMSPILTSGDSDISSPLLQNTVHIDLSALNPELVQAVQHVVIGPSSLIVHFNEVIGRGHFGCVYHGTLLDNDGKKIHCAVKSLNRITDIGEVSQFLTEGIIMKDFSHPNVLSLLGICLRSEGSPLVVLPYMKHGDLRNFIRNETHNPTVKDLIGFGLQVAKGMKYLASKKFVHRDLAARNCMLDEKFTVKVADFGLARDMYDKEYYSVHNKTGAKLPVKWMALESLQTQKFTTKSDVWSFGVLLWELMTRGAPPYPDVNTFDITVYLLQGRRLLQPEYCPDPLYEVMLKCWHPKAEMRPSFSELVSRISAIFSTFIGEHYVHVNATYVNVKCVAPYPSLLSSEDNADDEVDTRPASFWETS
- assay.comment: Test C: inhibition of the autophosphorylation of MET, ELISA technique (pppY1230, 1234, 1235), MKN45 cells
- Procedure: C) Inhibition of the Autophosphorylation of MET; ELISA Technique (pppY1230, 1234, 1235) a) Cellular lysates: Sow the MKN45 cells in a 96-well plate (Cell coat BD polylysine) at 20 000 cells/well under 200 μl of medium RPMI+10% FCS+1% L-glutamine. Leave to adhere to the incubator for 24 h. […] Stop the reaction with 100 μl of stop solution. Read at once at […] 0.1 second in the Wallac Victor plate reader. […]
measurement.type: IC50

CC(Oc1ccc2nc(NC(=O)NCCN3CCN(Cc4ccccc4)CC3)sc2c1)c1c(Cl)ccc(F)c1Cl (stereo not shown) [Example 35] :: 0.5 to 10 µM

Lab note: need IC50 with MET (Homo sapiens) for entry CC(Oc1cc2sc(NC(=O)NCCN3CCCC3)nc2cc1F)c1c(Cl)ccc(F)c1Cl (single isomer, unassigned) [Example 85] , please look it up. < 0.5 µM
